system: A549; experiment: Antiproliferative activity against human A549 cells assessed as cell viability inhibition rate incubated for 72 hr by MTT assay; type: functional, cell-based; conditions: A549, 72 h
pIC50: −log10 of the molar value.
The entries below are paired with their reported pIC50.

| COMPOUND | pIC50 |
| --- | --- |
| CC(C)c1cc(C(=O)N2C[C@@H](c3ccccc3)C[C@@H]2C(=O)NC(C)C(C)C)c(O)cc1O (some centres not stated) | 6.89 |
| CCOCCCNC(=O)[C@H]1C[C@H](c2ccccc2)CN1C(=O)c1cc(C(C)C)c(O)cc1O | 6.69 |
| O=C(NCc1ccccn1)[C@H]1C[C@H](c2ccccc2)CN1C(=O)c1cc(C2CC2)c(O)cc1O | 7.17 |
| CC(C)C(C)NC(=O)[C@H]1C[C@H](c2ccccc2)CN1C(=O)c1cc(C2CC2)c(O)cc1O (some centres not stated) | 6.98 |
| CC(C)c1cc(C(=O)N2C[C@@H](c3ccccc3)C[C@@H]2C(=O)NCc2ccccc2F)c(O)cc1O | 7.15 |
| Cc1ccc(CNC(=O)[C@H]2C[C@H](c3ccccc3)CN2C(=O)c2cc(C3CC3)c(O)cc2O)cc1 | 7.05 |
| O=C(NCc1ccccc1Cl)[C@H]1C[C@H](c2ccccc2)CN1C(=O)c1cc(C2CC2)c(O)cc1O | 7.38 |
| COc1ccc(C(C)NC(=O)[C@H]2C[C@H](c3ccccc3)CN2C(=O)c2cc(C(C)C)c(O)cc2O)cc1 (some centres not stated) | 6.76 |
| O=C(NCc1ccccc1)[C@H]1C[C@H](c2ccccc2)CN1C(=O)c1cc(C2CC2)c(O)cc1O | 7.38 |
| CC(C)c1cc(C(=O)N2C[C@@H](c3ccccc3)C[C@@H]2C(=O)NC(C)c2ccccc2)c(O)cc1O (some centres not stated) | 7.06 |
| CC(C)CNC(=O)[C@H]1C[C@H](c2ccccc2)CN1C(=O)c1cc(C(C)C)c(O)cc1O | 7.20 |
| COCCN(CCOC)C(=O)[C@H]1C[C@H](c2ccccc2)CN1C(=O)c1cc(C2CC2)c(O)cc1O | 6.79 |
| CC(C)c1cc(C(=O)N2C[C@@H](c3ccccc3)C[C@@H]2C(=O)NCc2ccc3ccccc3n2)c(O)cc1O | 7.11 |
| CC(NC(=O)[C@H]1C[C@H](c2ccccc2)CN1C(=O)c1cc(C2CC2)c(O)cc1O)c1ccccc1 (some centres not stated) | 6.97 |
| COc1ccc(C(C)NC(=O)[C@H]2C[C@H](c3ccccc3)CN2C(=O)c2cc(C3CC3)c(O)cc2O)cc1 (some centres not stated) | 7.09 |
| O=C(NCCCN1CCOCC1)[C@H]1C[C@H](c2ccccc2)CN1C(=O)c1cc(C2CC2)c(O)cc1O | 7.51 |
| COCCN(CCOC)C(=O)[C@H]1C[C@H](c2ccccc2)CN1C(=O)c1cc(C(C)C)c(O)cc1O | 6.52 |

---

biological target: Heat shock protein HSP90 (Homo sapiens, UniProt P07900+P08238); assay: Binding affinity to Hsp90 (unknown origin) assessed as dissociation constant incubated for 30 mins by fluorescence spectrophotometric analysis; assay type: protein assay
The entries below are paired with their reported Kd.
ASSAY ENDPOINT: Kd (nM)

| COMPOUND | ASSAY ENDPOINT | REPORTED |
| --- | --- | --- |
| O=C(NCc1ccccc1F)[C@H]1C[C@H](c2ccccc2)CN1C(=O)c1cc(C2CC2)c(O)cc1O | Kd | 168 |
| CC(C)c1cc(C(=O)N2C[C@@H](c3ccccc3)C[C@@H]2C(=O)NCCc2ccccc2)c(O)cc1O | Kd | 32 |
| CCCN1CCN(C(=O)[C@H]2C[C@H](c3ccccc3)CN2C(=O)c2cc(C(C)C)c(O)cc2O)CC1 | Kd | 1033 |
| CC(C)c1cc(C(=O)N2C[C@@H](c3ccccc3)C[C@@H]2C(=O)NC(C)C(C)C)c(O)cc1O (stereo partly drawn) | Kd | 345 |
| CC(C)c1cc(C(=O)N2C[C@@H](c3ccccc3)C[C@@H]2C(=O)NCc2ccccc2Cl)c(O)cc1O | Kd | 351 |
| CCN(C(=O)[C@H]1C[C@H](c2ccccc2)CN1C(=O)c1cc(C(C)C)c(O)cc1O)C(C)C | Kd | 2479 |
| COCCN(CCOC)C(=O)[C@H]1C[C@H](c2ccccc2)CN1C(=O)c1cc(C(C)C)c(O)cc1O | Kd | 783 |
| CC(C)c1cc(C(=O)N2C[C@@H](c3ccccc3)C[C@@H]2C(=O)NCCCn2ccnc2)c(O)cc1O | Kd | 1376 |
